Format: physicochemical
test-settings: Table 11 series
metric: Melting temp, Buffer plus Fe2+ and aKG (°C)

molecule: MON-HT17: engineered oxygenase protein, amino acid sequence SEQ ID NO:51 (protein) MHAALTPLTNKYRFIDVQPLTGVLGAEITGVDLREPLDDSTWNEILDAFHTYQVIYFPGQAITNEQHIAFSRRFGPVDPVPILKSIEGYPEVQMIRREANESSRYIGDDWHADSTFLDAPPAAVVMRAIEVPEYGGDTGFLSMYSAWETLSPTMQATIEGLNVVHSATKVFGSLYQATNWRFSNTSVKVMDVDAGDRETVHPLVVTHPVTGRRALYCNQVYCQKIQGMTDAESKSLLQFLYEHATQFDFTCRVRWKKDQVLVWDNLCTMHRAVPDYAGKFRYLTRTTVAGDKPSR
recorded-measurement: 61

Where do these numbers come from? They come from patent US12723255B2.
